Values compiled from patent US20140128385A1.

- tested_on: BACE-2 (Homo sapiens, UniProt Q9Y5Z0)
- Construct: Recombinant BACE-2 (extracellular domain, expressed in baculovirus and purified using standard methods)
- Sequence (Q9Y5Z0 63-473 limits assumed): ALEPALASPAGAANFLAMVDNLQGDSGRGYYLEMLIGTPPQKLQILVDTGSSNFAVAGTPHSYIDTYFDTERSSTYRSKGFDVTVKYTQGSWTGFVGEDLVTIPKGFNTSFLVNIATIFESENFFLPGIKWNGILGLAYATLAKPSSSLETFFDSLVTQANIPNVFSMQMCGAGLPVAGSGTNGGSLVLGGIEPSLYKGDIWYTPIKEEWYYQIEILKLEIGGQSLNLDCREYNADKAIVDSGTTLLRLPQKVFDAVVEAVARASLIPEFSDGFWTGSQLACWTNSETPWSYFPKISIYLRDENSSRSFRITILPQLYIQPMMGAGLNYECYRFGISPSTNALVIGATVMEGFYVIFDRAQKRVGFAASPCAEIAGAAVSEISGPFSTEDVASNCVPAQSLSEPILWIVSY
- assay_procedure: assay for inhibition of BACE-2
Counter-ions that a name gives are not always drawn.
IC50 values, listed per item
Form entry: value (nM) — number only.

Worked cases, answers included:
- molecule: "N#Cc1ccc(C(=O)Nc2ccc(F)c(C3(C(F)F)CNCC(N)=N3)c2)nc1 (stereo not drawn)"
  recorded_metric: "IC50"
  reported_value: 66
- molecule: "COc1cnc(C(=O)Nc2ccc(F)c([C@]3(C(F)F)COCC(N)=N3)c2)c(OC)c1 [Example 179, hydrochloride]"
  recorded_metric: "IC50"
  reported_value: 270
- molecule: "[2H]C([2H])([2H])OCc1cc(F)cnc1C(=O)Nc1ccc(F)c([C@]2(C(F)F)COCC(N)=N2)c1"
  recorded_metric: "IC50"
  reported_value: 59
- molecule: "Cc1cc(Cl)cnc1C(=O)Nc1ccc(F)c(C2(C)COC(CF)(CF)C(N)=N2)c1 (stereo not drawn)"
  recorded_metric: "IC50"
  reported_value: 9
- molecule: "Cc1cnc(C(=O)Nc2cccc(C3(C)COCC(N)=N3)c2)cn1 (stereo not drawn) [Example 6, hydrochloride]"
  recorded_metric: "IC50"
  reported_value: 3440
- molecule: "C[C@@]1(c2cccc(NC(=O)c3ccc(Br)cn3)c2)COCC(N)=N1 [Example 3, hydrochloride]"
  recorded_metric: "IC50"
  reported_value: 56

**Q:** Which IC50 is reported for this molecule? CC1(c2cccc(NC(=O)c3ccc(Br)cn3)c2)COCC(N)=N1 (stereo not drawn) [Example 2, hydrochloride]
**A:** 87

**Q:** Query C[C@@]1(c2cccc(NC(=O)c3ccc(Br)cn3)c2)CO[C@@](C)(C(F)(F)F)C(N)=N1 (relative stereo) [Example 66, hydrochloride] next
**A:** 6

**Q:** Query COCCOc1cnc(C(=O)Nc2ccc(F)c([C@]3(C)CO[C@@](C)(C(F)(F)F)C(N)=N3)c2)cn1 next
**A:** 514

**Q:** Query COc1cc(Br)cnc1C(=O)Nc1cccc(C2(C(F)F)COCC(N)=N2)c1 (stereo not drawn) next
**A:** 133

**Q:** Query C[C@@]1(c2cc(NC(=O)c3ncc(C(F)F)cc3N)ccc2F)CO[C@@](C)(C(F)(F)F)C(N)=N1 next
**A:** 11

**Q:** Query N#Cc1ccc(C(=O)Nc2ccc(F)c(C3(C(F)F)CNC(=O)C(N)=N3)c2)nc1 (stereo not drawn) next
**A:** 7

**Q:** Query Cn1ccnc1C(=O)Nc1ccc(F)c([C@]2(C(F)F)COCC(N)=N2)c1 next
**A:** 573

**Q:** Query NC1=N[C@@](c2cc(NC(=O)c3ncc(OC(F)F)cc3Cl)ccc2F)(C(F)F)COC1 [Example 185, hydrochloride] next
**A:** 199

**Q:** Query Cc1nc(C(=O)Nc2ccc(F)c([C@]3(C(F)F)COCC(N)=N3)c2)c(N)o1 [Example 168, hydrochloride] next
**A:** 35

###

- tested_on: BACE-2 (Homo sapiens)
- Construct: Recombinant BACE-2 (extracellular domain, expressed in baculovirus and purified using standard methods)
- assay_procedure: assay for inhibition of BACE-2
pIC50 values, listed per item
// pIC50 is dimensionless: -log10 of concentration (M)

**Q:** Which pIC50 is reported for this compound? C[C@@]1(c2cc(NC(=O)c3ncc(C(F)(F)F)cc3Cl)ccc2F)CO[C@@](C)(C(F)(F)F)C(N)=N1
**A:** 7.66

**Q:** Query Cc1nc(C(=O)Nc2cccc(C3(C(F)F)COCC(N)=N3)c2)c(C)o1 (stereo not shown) next
**A:** 5.98

**Q:** Query NC1=NC(c2cccc(NC(=O)c3ccc(Cl)cn3)c2)(C(F)F)COC1 (stereo not shown) next
**A:** 6.86

**Q:** Query COCCOc1cnc(C(=O)Nc2ccc(F)c([C@]3(C(F)F)COCC(N)=N3)c2)cn1 next
**A:** 5.96
